tested on: BaF3; test: Antiproliferative activity against mouse BaF3 cells stably expressing KIF5B-RET incubated for 72 hrs by CCK8 assay; assay type: functional, cell-based; details: BaF3, 72 h
propertyName: IC50 (nM)

COc1ccc(CN2C3CC2CN(c2ccc(-c4cc(N5CCN(CC6CCN(c7ccc8c(c7)C(=O)N(C7CCC(=O)NC7=O)C8=O)CC6)CC5)cn5ncc(C#N)c45)cn2)C3)cn1 (centres undefined); 10.3
COc1ccc(CN2C3CC2CN(c2ccc(-c4cc(N5CCC(N6CCN(C(=O)CCCNc7ccc8c(c7)C(=O)N(C7CCC(=O)NC7=O)C8=O)CC6)CC5)cn5ncc(C#N)c45)cn2)C3)cn1 (centres undefined); 14.9

1 = COc1ccc(CN2C3CC2CN(c2ccc(-c4cc(N5CCN(C6CCN(c7ccc8c(c7)C(=O)N(C7CCC(=O)NC7=O)C8=O)CC6)CC5)cn5ncc(C#N)c45)cn2)C3)cn1 (centres undefined)
2 = COc1ccc(CN2C3CC2CN(c2ccc(-c4cc(N5CCN(C(=O)CCCCCNc6ccc7c(c6)C(=O)N(C6CCC(=O)NC6=O)C7=O)CC5)cn5ncc(C#N)c45)cn2)C3)cn1 (centres undefined)
Select one: 1 or 2 . Criterion: greater recorded IC50. # reply format: chosen label
1
(1: 15.7 nM, 2: 6.8 nM)
